src = patent US20240376151A1

# test-target: RNF31 UBA domain (Homo sapiens)
# Construct: RNF31 UBA domain protein (residues 480-639) with N-terminal Thioredoxin-TEV-6×his-yBBr-3C tags; Thioredoxin (N, cleaved yes); made in house; host or cells: E. coli BL21 (DE3) pLysS
# Sequence (Q96EP0 480-639): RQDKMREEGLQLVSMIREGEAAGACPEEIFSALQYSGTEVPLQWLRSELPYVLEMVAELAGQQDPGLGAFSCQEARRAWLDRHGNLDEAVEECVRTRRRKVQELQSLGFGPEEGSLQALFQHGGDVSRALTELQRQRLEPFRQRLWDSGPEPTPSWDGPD
# assay-protocol: Phage Library Screening with NGS, RNF31 UBA domain
# Assay type: binding
# condition-set: cluster C46; BLANK screen, column 5 of 5
Give Phage library screen NGS readout, BLANK for every item shown.
Numbers only.

DPALTNCFSAAVYCAMF: 0
DPAAQACLSAAVFCAWY: 0
DPAEQRCLSAAVYCAWH: 0
DPAQRQCLSAAVFCATL: 1
DPAQMFCYSAAVYCAAF: 0
DPAQLNCLSAAMYCALY: 0
DPAALACLSAAVYCEMY: 1
DPAASQCFSAAVYCAWI: 0

For each listed entry, give its Phage library screen NGS readout, BLANK.
1. DPAQRQCLSAAVWCATF
2. DPAVQSCLSAAVYCAFR
3. DPASASCLSAAIYCSMF
4. DPALRTCLSAAVFCAVA
5. DPALQSCLSAAVYCTVS
6. DPAHVRCTSAALWCNIF
7. DPAQMSCFSAAVYCRLF

OUT:
0
1
0
1
0
0
0
